experiment: Cytotoxicity against mouse RAW264.7 cells assessed as cell viability at 40 uM incubated for 24 hrs by MTT assay relative to control; type: toxicity, cell-based; details: read-out: Activity
PROPERTY LABEL: viability at 24 h, 40 µM (%)
Report only the number, with the unit % understood.

Sample records with viability at 24 h, 40 µM:
CC1(C)CC[C@]2(C(=O)OCc3ccccc3)CC[C@]3(C)C(=CC[C@@H]4[C@@]5(C)CCC(=O)[C@@](C)(COC(=O)CNC(=O)CCCC[C@@H]6CCSS6)[C@@H]5CC[C@]43C)[C@@H]2C1 114
CC1(C)CC[C@]2(C(=O)OCc3ccccc3)CC[C@]3(C)C(=CC[C@@H]4[C@@]5(C)C/C(=C/c6ccccc6Br)C(=O)[C@@](C)(CO)[C@@H]5CC[C@]43C)[C@@H]2C1 92.2
CC1(C)CC[C@]2(C(=O)OCc3ccccc3)CC[C@]3(C)C(=CC[C@@H]4[C@@]5(C)CCC(=O)[C@@](C)(COC(=O)CCN6CCCCC6)[C@@H]5CC[C@]43C)[C@@H]2C1 3.82

State its viability at 24 h, 40 µM: "CC1(C)CC[C@]2(C(=O)OCc3ccccc3)CC[C@]3(C)C(=CC[C@@H]4[C@@]5(C)CCC(=O)[C@@](C)(COC(=O)CC#N)[C@@H]5CC[C@]43C)[C@@H]2C1"
93.1

State its viability at 24 h, 40 µM: "CC1(C)CC[C@]2(C(=O)OCc3ccccc3)CC[C@]3(C)C(=CC[C@@H]4[C@@]5(C)CCC(=O)[C@@](C)(COC(=O)CCCC[C@@H]6CCSS6)[C@@H]5CC[C@]43C)[C@@H]2C1"
119

* * *

experiment: Cytotoxicity against mouse RAW264.7 cells assessed as cell viability at 40 uM incubated for 24 hrs by MTT assay relative to control; assay type: toxicity, cell-based; details: read-out: Activity
Known viability at 24 h, 40 µM of a selection of molecules
Report only the number, with the unit % understood.

Sample records with viability at 24 h, 40 µM:
CC1(C)CC[C@]2(C(=O)OCc3ccccc3)CC[C@]3(C)C(=CC[C@@H]4[C@@]5(C)CCC(=O)[C@@](C)(COC(=O)CCCCCNC(=O)CCCC[C@@H]6CCSS6)[C@@H]5CC[C@]43C)[C@@H]2C1 99.7
CC1(C)CC[C@]2(C(=O)OCc3ccccc3)CC[C@]3(C)C(=CC[C@@H]4[C@@]5(C)C/C(=C/c6ccc(Br)cc6)C(=O)[C@@](C)(CO)[C@@H]5CC[C@]43C)[C@@H]2C1 92.9
CC1(C)CC[C@]2(C(=O)OCc3ccccc3)CC[C@]3(C)C(=CC[C@@H]4[C@@]5(C)C/C(=C/c6cnccn6)C(=O)[C@@](C)(CO)[C@@H]5CC[C@]43C)[C@@H]2C1 3.34
CC1(C)CC[C@]2(C(=O)OCc3ccccc3)CC[C@]3(C)C(=CC[C@@H]4[C@@]5(C)CCC(=O)[C@@](C)(COC(=O)CCn6cccc6)[C@@H]5CC[C@]43C)[C@@H]2C1 96.9
CC(=O)CCC(=O)OC[C@]1(C)C(=O)CC[C@@]2(C)[C@H]1CC[C@]1(C)[C@@H]2CC=C2[C@@H]3CC(C)(C)CC[C@]3(C(=O)OCc3ccccc3)CC[C@]21C 106

State its viability at 24 h, 40 µM: "CC1(C)CC[C@]2(C(=O)OCc3ccccc3)CC[C@]3(C)C(=CC[C@@H]4[C@@]5(C)CCC(=O)[C@@](C)(COC(=O)C(F)(F)F)[C@@H]5CC[C@]43C)[C@@H]2C1"
4.58

State its viability at 24 h, 40 µM: "CC1(C)CC[C@]2(C(=O)OCc3ccccc3)CC[C@]3(C)C(=CC[C@@H]4[C@@]5(C)CCC(=O)[C@@](C)(COC(=O)c6cc7ccccc7[nH]6)[C@@H]5CC[C@]43C)[C@@H]2C1"
110

State its viability at 24 h, 40 µM: "CC1(C)CC[C@]2(C(=O)OCc3ccccc3)CC[C@]3(C)C(=CC[C@@H]4[C@@]5(C)CCC(=O)[C@@](C)(COC(=O)CCNC(=O)CCCC[C@@H]6CCSS6)[C@@H]5CC[C@]43C)[C@@H]2C1"
99.4

State its viability at 24 h, 40 µM: "CC1(C)CC[C@]2(C(=O)OCc3ccccc3)CC[C@]3(C)C(=CC[C@@H]4[C@@]5(C)C/C(=C/c6cccc(Br)c6)C(=O)[C@@](C)(CO)[C@@H]5CC[C@]43C)[C@@H]2C1"
94

State its viability at 24 h, 40 µM: "CC1(C)CC[C@]2(C(=O)OCc3ccccc3)CC[C@]3(C)C(=CC[C@@H]4[C@@]5(C)CCC(=O)[C@@](C)(COC(=O)CCCNC(=O)CCCC[C@@H]6CCSS6)[C@@H]5CC[C@]43C)[C@@H]2C1"
100

* * *

tested on: RAW264.7; experiment: Anti-inflammatory activity against LPS-induced mouse RAW264.7 cells assessed as inhibition of NO production at 10 uM preincubated for 2 hrs followed by LPS addition and measured after 24 hrs by Griess reagent-based microplate reader analysis relative to control; format: functional; parameters: scale not given: the % may be the effect or the level left; conditions: time 26 hrs
Known Activity of a selection of molecules
Report only the number, with the unit % understood.

Sample records with Activity:
CC1(C)CC[C@]2(C(=O)OCc3ccccc3)CC[C@]3(C)C(=CC[C@@H]4[C@@]5(C)CCC(=O)[C@@](C)(COC(=O)CCCNC(=O)CCCC[C@@H]6CCSS6)[C@@H]5CC[C@]43C)[C@@H]2C1 69.78
CC1(C)CC[C@]2(C(=O)OCc3ccccc3)CC[C@]3(C)C(=CC[C@@H]4[C@@]5(C)C/C(=C/c6ccccc6[N+](=O)[O-])C(=O)[C@@](C)(CO)[C@@H]5CC[C@]43C)[C@@H]2C1 1.44
CC[C@H](C)[C@H](NC(=O)CCCC[C@@H]1CCSS1)C(=O)OC[C@]1(C)C(=O)CC[C@@]2(C)[C@H]1CC[C@]1(C)[C@@H]2CC=C2[C@@H]3CC(C)(C)CC[C@]3(C(=O)OCc3ccccc3)CC[C@]21C 17.94
CC1(C)CC[C@]2(C(=O)OCc3ccccc3)CC[C@]3(C)C(=CC[C@@H]4[C@@]5(C)C/C(=C/c6cccc([N+](=O)[O-])c6)C(=O)[C@@](C)(CO)[C@@H]5CC[C@]43C)[C@@H]2C1 1.09
COCC(=O)OC[C@]1(C)C(=O)CC[C@@]2(C)[C@H]1CC[C@]1(C)[C@@H]2CC=C2[C@@H]3CC(C)(C)CC[C@]3(C(=O)OCc3ccccc3)CC[C@]21C 42.74
CC1(C)CC[C@]2(C(=O)OCc3ccccc3)CC[C@]3(C)C(=CC[C@@H]4[C@@]5(C)C/C(=C/c6ccc(Br)cc6)C(=O)[C@@](C)(CO)[C@@H]5CC[C@]43C)[C@@H]2C1 6.09
CC1(C)CC[C@]2(C(=O)OCc3ccccc3)CC[C@]3(C)C(=CC[C@@H]4[C@@]5(C)CCC(=O)[C@@](C)(COC(=O)CCNC(=O)CCCC[C@@H]6CCSS6)[C@@H]5CC[C@]43C)[C@@H]2C1 43.82
CC1(C)CC[C@]2(C(=O)OCc3ccccc3)CC[C@]3(C)C(=CC[C@@H]4[C@@]5(C)CCC(=O)[C@@](C)(COC(=O)CCCCCNC(=O)CCCC[C@@H]6CCSS6)[C@@H]5CC[C@]43C)[C@@H]2C1 49.56

Please look at the following molecule next.
State the measured Activity (RAW264.7) of "CC(=O)CCC(=O)OC[C@]1(C)C(=O)CC[C@@]2(C)[C@H]1CC[C@]1(C)[C@@H]2CC=C2[C@@H]3CC(C)(C)CC[C@]3(C(=O)OCc3ccccc3)CC[C@]21C"
43.51

* * *

Known viability at 24 h, 40 µM of a selection of compounds
assay: Cytotoxicity against mouse RAW264.7 cells assessed as cell viability at 40 uM incubated for 24 hrs by MTT assay relative to control; format: toxicity, cell-based; conditions: read-out: Activity
Report only the number, with the unit % understood.

CC1(C)CC[C@]2(C(=O)OCc3ccccc3)CC[C@]3(C)C(=CC[C@@H]4[C@@]5(C)C/C(=C/c6ccc([N+](=O)[O-])cc6)C(=O)[C@@](C)(CO)[C@@H]5CC[C@]43C)[C@@H]2C1 119
CC1(C)CC[C@]2(C(=O)OCc3ccccc3)CC[C@]3(C)C(=CC[C@@H]4[C@@]5(C)C/C(=C/c6cccc([N+](=O)[O-])c6)C(=O)[C@@](C)(CO)[C@@H]5CC[C@]43C)[C@@H]2C1 109
CC(C)=CC(=O)OC[C@]1(C)C(=O)CC[C@@]2(C)[C@H]1CC[C@]1(C)[C@@H]2CC=C2[C@@H]3CC(C)(C)CC[C@]3(C(=O)OCc3ccccc3)CC[C@]21C 95
CC1(C)CC[C@]2(C(=O)OCc3ccccc3)CC[C@]3(C)C(=CC[C@@H]4[C@@]5(C)C/C(=C/c6cscn6)C(=O)[C@@](C)(CO)[C@@H]5CC[C@]43C)[C@@H]2C1 85

Please look at the following compound next.
State its viability at 24 h, 40 µM: "CC1(C)CC[C@]2(C(=O)OCc3ccccc3)CC[C@]3(C)C(=CC[C@@H]4[C@@]5(C)CCC(=O)[C@@](C)(CO)[C@@H]5CC[C@]43C)[C@@H]2C1"
106
